Test system: HCV replicon (HCV 1b-377-neo replicon cells, Huh7)
Assay: HCV replicon cell-based FRET assay
Conditions: Hepatitis C virus, Huh-7
Recorded measurements of EC50, one per entry
readout-kind: EC50

{"columns": ["compound", "study-target", "endpoint-value"],
 "data": [
  ["COc1ccc2c(O[C@@H]3C[C@H]4C(=O)N[C@]5(C(=O)NS(=O)(=O)C6CC6)C[C@H]5/C=C\\CCCOC[C@H](NC(=O)OC(C)(C)C)C(=O)N4C3)nccc2c1", "HCV replicon (HCV 1b-377-neo replicon cells, Huh7)", "< 50 nM"],
  ["COc1ccc2c(OC3CC4C(=O)NC5(C(=O)NS(=O)(=O)C6CC6)CC5C=CCCCSCC(NC(=O)OCC(C)(C)C)C(=O)N4C3)nccc2c1 (stereo not drawn)", "HCV replicon (HCV 1b-377-neo replicon cells, Huh7)", "< 50 nM"],
  ["CCCNC(=O)NC1CCCCCC=CC2CC2(C(=O)NS(=O)(=O)C2CC2)NC(=O)C2CC(Oc3nccc4ccccc34)CN2C1=O (stereo not drawn)", "HCV replicon (HCV 1b-377-neo replicon cells, Huh7)", "< 50 nM"],
  ["COc1ccc2c(OC3CC4C(=O)NC5(C(=O)NS(=O)(=O)C6CC6)CC5C=CCOCCCC(NC(=O)OCC(C)(C)C)C(=O)N4C3)nc(-c3ccccc3)cc2c1 (stereo not drawn)", "HCV replicon (HCV 1b-377-neo replicon cells, Huh7)", "< 50 nM"],
  ["COc1ccc2c(OC3CC4C(=O)NC5(C(=O)NS(=O)(=O)C6CC6)CC5C=CCCCCCC(NC(=O)NC5CCCC5)C(=O)N4C3)nccc2c1 (stereo not drawn)", "HCV replicon (HCV 1b-377-neo replicon cells, Huh7)", "< 50 nM"],
  ["COc1ccc2c(OC3CC4C(=O)NC5(C(=O)NS(=O)(=O)C6CC6)CC5C=CCCCCCC(NC(=O)N5CCCC5)C(=O)N4C3)nccc2c1 (stereo not drawn)", "HCV replicon (HCV 1b-377-neo replicon cells, Huh7)", "< 50 nM"]
]}
